- system: catalytic domain of human collagenase-3 (MMP-13) (Homo sapiens, UniProt P45452)
- Construct: Determination of the Enzymatic Activity of the Catalytic Domain of Human Collagenase-3 (MMP-13); purchased INVITEK, Berlin 30 100 803
- experiment-description: Enzymatic activity of the catalytic domain of human collagenase-3 (MMP-13), fluorogenic substrate
- Assay type: biochemical
- Description: Determination of the Enzymatic Activity of the Catalytic Domain of Human Collagenase-3 (MMP-13) Activation of the proenzyme: 2 parts by volume of proenzyme were incubated with 1 part by volume of APMA solution at 37° C. for 1.5 hours. […] The enzymic activity was measured by incubating 10 μl of enzyme solution with 10 μl of a 3% strength (v/v) buffered dimethyl sulfoxide solution (reaction 1) for 15 minutes. […]
Friendly reminder: IC50 below 1 nM is Met, at or above is Not met.

- molecule: "O=C(NO)C1C2CCOC2CCN1S(=O)(=O)c1ccc(-c2ccc(Cl)cc2)cc1 (stereo not shown) [Example 7]"
  system: "catalytic domain of human collagenase-3 (MMP-13) (Homo sapiens, UniProt P45452)"
  label: "Not met"
- molecule: "O=C(NO)C1C2CCOC2CCN1S(=O)(=O)c1ccc(Oc2ccc(F)cc2)cc1 (stereo not shown) [Example 11]"
  system: "catalytic domain of human collagenase-3 (MMP-13) (Homo sapiens, UniProt P45452)"
  label: "Not met"
- molecule: "O=C(NO)[C@H]1[C@H]2CCO[C@H]2CCN1S(=O)(=O)c1ccc(Oc2ccc(F)cc2)cc1 [Example 12]"
  system: "catalytic domain of human collagenase-3 (MMP-13) (Homo sapiens, UniProt P45452)"
  label: "Met"

Continue with the molecule presented below.
Please state whether IC50 is below 1 nM for O=C(O)C1C2CCOC2CCN1S(=O)(=O)c1ccc(Oc2ccc(F)cc2)cc1 (stereo not shown) [Example 10]
Not met

* * *

Readings of IC50 for the listed molecules
- system: catalytic domain of human collagenase-1 (MMP-1) (Homo sapiens)
- Construct: Determination of the Enzymatic Activity of the Catalytic Domain of Human Collagenase-1 (MMP-1); purchased Biocol, Potsdam MMP1
- Sequence (P03956 100-269 limits assumed): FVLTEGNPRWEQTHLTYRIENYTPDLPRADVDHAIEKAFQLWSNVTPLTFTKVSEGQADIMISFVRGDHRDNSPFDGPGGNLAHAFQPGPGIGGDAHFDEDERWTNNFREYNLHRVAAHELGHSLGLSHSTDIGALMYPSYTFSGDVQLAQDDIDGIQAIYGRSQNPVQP
- experiment-description: Enzymatic activity of the catalytic domain of human collagenase-1 (MMP-1), fluorogenic substrate
- Format: biochemical

Sample records with IC50:
- molecule: "O=C(NO)[C@H]1[C@H]2CCO[C@H]2CCN1S(=O)(=O)c1ccc(-c2ccc(Cl)cc2)cc1"
  system: "catalytic domain of human collagenase-1 (MMP-1) (Homo sapiens)"
  IC50: "14 nM"
- molecule: "O=C(O)C1C2CCOC2CCN1S(=O)(=O)c1ccc(Oc2ccc(F)cc2)cc1 (stereo not shown)"
  system: "catalytic domain of human collagenase-1 (MMP-1) (Homo sapiens)"
  IC50: "> 10000 nM"
- molecule: "N#Cc1ccc(Oc2ccc(S(=O)(=O)N3CC[C@@H]4OCC[C@@H]4[C@@H]3C(=O)NO)cc2)cc1"
  system: "catalytic domain of human collagenase-1 (MMP-1) (Homo sapiens)"
  IC50: "59 nM"

Moving on to the next molecule.
Look at this molecule and give its reported IC50. O=C(NO)C1C2CCOC2CCN1S(=O)(=O)c1ccc(Oc2ccc(F)cc2)cc1 (stereo not shown)
39 nM
